Target: EGFR(L858R/T790M) (Homo sapiens, UniProt P00533, L858R/T790M)
Sequence (P00533 669-1210 T790M/L858R): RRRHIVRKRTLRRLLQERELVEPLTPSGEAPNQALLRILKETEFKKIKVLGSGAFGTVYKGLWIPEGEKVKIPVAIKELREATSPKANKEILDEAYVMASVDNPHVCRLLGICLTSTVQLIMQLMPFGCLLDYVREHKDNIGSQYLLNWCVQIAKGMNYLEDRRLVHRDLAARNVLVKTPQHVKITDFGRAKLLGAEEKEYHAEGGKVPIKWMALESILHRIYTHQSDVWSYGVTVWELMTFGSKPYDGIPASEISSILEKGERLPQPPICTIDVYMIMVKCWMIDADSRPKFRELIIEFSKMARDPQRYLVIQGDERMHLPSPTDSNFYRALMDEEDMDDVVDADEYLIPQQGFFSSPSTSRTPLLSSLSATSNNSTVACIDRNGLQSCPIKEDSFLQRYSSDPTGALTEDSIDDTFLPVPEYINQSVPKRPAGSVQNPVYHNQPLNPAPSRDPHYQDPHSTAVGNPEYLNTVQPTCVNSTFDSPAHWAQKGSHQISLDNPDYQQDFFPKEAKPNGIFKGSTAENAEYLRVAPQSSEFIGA
Assay: EGFR biochemical assay (HTRF), IC50 determination
Set-up: purchased from Carna (GST-a.a. 669-1210); purchased Carna
Conditions: no pre-incubation; 10 μM ATP; read-out: EGFR (L858R/T790M) IC50 (μM) No pre-incubation
observable: IC50 (µM)

C=CC(=O)Nc1ccc(C)c(-n2c(NC(=O)c3ccnc(C)c3)nc3cccc(Cl)c32)c1 [Example 2-16]
9.38
C=CC(=O)Nc1cccc(-n2c(NC(=O)c3ccc(C)cc3)nc3cc(C)ccc32)c1 [Example 2-3]
0.39
C=CC(=O)Nc1cccc(-n2c(NC(=O)c3cccc(C(F)(F)F)c3)nc3cc(CN4CCCC4)ccc32)c1 [Example 5-2]
0.039
C=CC(=O)NCCn1c(NC(=O)c2cccc(C(F)(F)F)c2)nc2cc(C)ccc21 [Example 8-5]
2.64
C=CC(=O)N[C@H]1CC[C@@H](n2c(NC(=O)c3cccc(C(F)(F)F)c3)nc3cc(C)ccc32)C1 (single isomer, unassigned) [Example 9-1A]
0.75
C=CC(=O)Nc1cccc(-n2c(NC(=O)c3ccc4ccccc4c3)nc3cc(C)ccc32)c1 [Example 2-8]
0.18

1 = C=CC(=O)Nc1cc(-n2c(NC(=O)c3ccnc(C)c3)nc3cccc(Cl)c32)ccc1C [Example 2-17]
2 = C=CC(=O)NC1CCC(n2c(NC(=O)c3cccc(C(F)(F)F)c3)nc3cc(C)ccc32)C1 (racemic) [Example 8-3]
Enquiry: // compare: 1 vs 2 , metric IC50, want the smaller # respond with the chosen item's label
Return: 1

1 = C=CC(=O)Nc1cccc(-n2c(NC(=O)c3cccc(C(F)(F)F)c3)nc3cc(CN4CCOCC4)ccc32)c1 [Example 5-3]
2 = C=CC(=O)Nc1cc(C)cc(-n2c(NC(=O)c3ccnc(C)c3)nc3cccc(Cl)c32)c1 [Example 2-18]
3 = C=CC(=O)Nc1cccc(-n2c(NC(=O)c3cccc(Oc4ccccc4)c3)nc3cc(C)ccc32)c1 [Example 2-6]
4 = C=CC(=O)Nc1cccc(-n2c(NC(=O)c3ccc(Cl)c(Cl)c3)nc3cc(C)ccc32)c1 [Example 2-4]
Enquiry: Hello, I need these entries ordered by IC50, highest reading first. Thanks! Could you list the labels in the order requested?
Return: 2, 4, 1, 3
(2: 0.627 µM, 4: 0.27 µM, 1: 0.072 µM, 3: 0.021 µM)

A = C=CC(=O)N(C)c1cccc(-n2c(NC(=O)c3cccc(C(F)(F)F)c3)nc3cc(C)ccc32)c1 [Example 2-10]
B = C=CC(=O)N[C@@H]1CC[C@H](n2c(NC(=O)c3cccc(C(F)(F)F)c3)nc3cc(C)ccc32)C1 (single isomer, unassigned) [Example 9-1B]
Enquiry: For the two items A and B , which reports the higher IC50 value? # respond with the chosen item's label
Return: B
(B: 0.29 µM, A: 0.085 µM)
